The reported numbers originate from patent US20070049593A1.

# tested.on: HCV polymerase (Hepatitis C virus genotype 1b)
# Construct: a region encoding NS5B (J Virol 1991 March, 65(3), 1105-13, 544 amino acids after deletion of 47 amino acids on the C-terminal); 6xHis (C); made in house; host or cells: Escherichia coli
# test.method.notes: biochemical
# Parameters: species or system HCV BK strain
Where a name gives a salt, the structure may show the parent alone.
In this section we review reported IC50 values for a set of molecules.

CCN1CCN(C(=O)CN2CCn3c(c(C4CCCCC4)c4ccc(C(=O)NC)cc43)-c3ccccc32)CC1 [Example 1-84] :: < 100 nM
CC(=O)Nc1ccc(N2CCOCC2)c(COc2ccc3c(c2)OCCn2c-3c(C3CCCCC3)c3ccc(C(=O)O)cc32)c1 [Example 2-15, monohydrochloride] :: < 100 nM

Next, consider the following molecule.
Item Cc1ccc2c(c1)N(CCN1CCCC(C(C)C)C1)CCn1c-2c(C2CCCCC2)c2ccc(C(=O)O)cc21 (stereo not drawn) [Example 1-365, dihydrochloride] was tested on HCV polymerase (Hepatitis C virus genotype 1b); the reported IC50 is < 100 nM

====

# tested.on: HCV polymerase (Hepatitis C virus genotype 1b)
# Construct: a region encoding NS5B (J Virol 1991 March, 65(3), 1105-13, 544 amino acids after deletion of 47 amino acids on the C-terminal); 6xHis (C); made in house; host or cells: Escherichia coli
# test.method.notes: biochemical
# Design: species or system HCV BK strain
Where a name gives a salt, the structure may show the parent alone.
Measured IC50, listed per entry for reference.

Solved entries:
CS(=O)(=O)Nc1ccc(N2CCOCC2)c(COc2ccc3c(c2)OCCn2c-3c(C3CCCCC3)c3ccc(C(=O)O)cc32)c1 [Example 2-17, monohydrochloride] :: < 100 nM
CC(C)(C)OC(=O)N1CCC(CCN2CCn3c(c(C4CCCCC4)c4ccc(C(=O)O)cc43)-c3ccccc32)CC1 :: < 100 nM
Cc1ccc2c(c1)N(CCCCN1CCCCC1)CCn1c-2c(C2CCCCC2)c2ccc(C(=O)O)cc21 [Example 1-425, dihydrochloride] :: < 100 nM
COCC(C)(NC(=O)c1ccc2c(C3CCCCC3)c3n(c2c1)CCOc1ccccc1-3)C(=O)O (stereo not drawn) :: 100 to 1000 nM
CN(C)CCN1CCn2c(c(C3CCCCC3)c3ccc(C(=O)O)cc32)-c2ccc(OCc3cccc(C(=O)O)c3)cc21 [Example 1-586, dihydrochloride] :: < 100 nM

Here is the next item to consider.
Per the record, COc1ccc2c(c1)OCCn1c-2c(C2CCCCC2)c2ccc(C(=O)N[C@@H](Cc3ccc(O)cc3)c3noc(=O)[nH]3)cc21 has IC50 of < 100 nM

====

# tested.on: HCV polymerase (Hepatitis C virus genotype 1b)
# Construct: a region encoding NS5B (J Virol 1991 March, 65(3), 1105-13, 544 amino acids after deletion of 47 amino acids on the C-terminal); 6xHis (C); made in house; host or cells: Escherichia coli
# test.method.notes: biochemical
# Set-up: species or system HCV BK strain
pIC50: −log10 of the molar value. Structures can show the parent of a compound that is named as a salt.
experimental.endpoint: pIC50

Record summary for COc1ccc2c(c1)OCCn1c-2c(C2CCCCC2)c2ccc(C(=O)NC(C)(C)c3ccc(/C=C/C(=O)O)cc3)cc21 [Example 2-422] : reported pIC50 = > 7.00

Reported pIC50 of O=C(NCc1nc2ccccc2[nH]1)c1ccc2c(C3CCCCC3)c3n(c2c1)CCOc1ccccc1-3 [Example 2-252] : > 7.00

Measured pIC50 of CN(C)C(=O)C1Cn2c(c(C3CCCCC3)c3ccc(C(=O)O)cc32)-c2ccccc2O1 (stereo not shown) [Example 3-4] : > 7.00

Looking up O=C(O)c1ccc2nc(CNC(=O)c3ccc4c(C5CCCCC5)c5n(c4c3)CCOc3ccccc3-5)[nH]c2c1 [Example 2-197] , I see its pIC50 listed as > 7.00

Reported pIC50 of O=C(O)c1ccc2c(C3CCCCC3)c3n(c2c1)CCN(CCN1CCCCCCC1)c1ccccc1-3 [Example 1-154] : > 7.00

// CS(=O)(=O)c1ccc(N2CCOCC2)c(COc2ccc3c(c2)OCCn2c-3c(C3CCCCC3)c3ccc(C(N)=O)cc32)c1 [Example 2-48, monohydrochloride] : pIC50 value = > 7.00

CCCc1ccc2c(c1)N(CCN1CCCC(C)C1)CCn1c-2c(C2CCCCC2)c2ccc(C(=O)O)cc21 (stereo not shown) [Example 1-356, dihydrochloride] yielded pIC50 of > 7.00

====

The following molecules are shown together with reported pIC50 values.
# tested.on: HCV polymerase (Hepatitis C virus genotype 1b)
# Construct: a region encoding NS5B (J Virol 1991 March, 65(3), 1105-13, 544 amino acids after deletion of 47 amino acids on the C-terminal); 6xHis (C); made in house; host or cells: Escherichia coli
# test.method.notes: biochemical
# Set-up: species or system HCV BK strain
pIC50: −log10 of the molar value. Counter-ions that a name gives are not always drawn.

Sample records with pIC50:
Cc1ccc2c(c1)N(CCN1CCCCC1)CCn1c-2c(C2CCCCC2)c2ccc(S(N)(=O)=O)cc21 [Example 1-507, dihydrochloride] :: 6.00 to 7.00
CC(=O)N1CCN(CCN2CCn3c(c(C4CCCCC4)c4ccc(C(=O)O)cc43)-c3ccccc32)CC1 [Example 1-98, dihydrochloride] :: > 7.00

Form field pIC50 for item Cc1ccc2c(c1)N(CCN1CCCCC1)CCn1c-2c(C2CCCCC2)c2ccc(C(=O)O)cc21 [Example 1-108, dihydrochloride] on HCV polymerase (Hepatitis C virus genotype 1b): > 7.00

HCV polymerase (Hepatitis C virus genotype 1b) data for O=C(O)c1ccc2c(C3CCCCC3)c3n(c2c1)CCN(CC(=O)N1CCCCC1)c1cc(F)ccc1-3 [Example 1-114, monohydrochloride] ; its pIC50: > 7.00

Considering O=C(NCC1(O)CCCCC1)c1ccc2c(C3CCCCC3)c3n(c2c1)CCOc1ccccc1-3 [Example 2-206] , its pIC50 with HCV polymerase (Hepatitis C virus genotype 1b) was recorded as 6.00 to 7.00

Entry COc1ccc(C[C@H](NC(=O)c2ccc3c(C4CCCCC4)c4n(c3c2)CCOc2ccccc2-4)C(=O)O)cc1 [Example 2-237] , tested on HCV polymerase (Hepatitis C virus genotype 1b), has a reported pIC50 of > 7.00

Considering COc1ccc2c(c1)OCCn1c-2c(C2CCCCC2)c2ccc(C(=O)NC(C)(C)c3nc4cc(C(=O)O)ccc4c(=O)[nH]3)cc21 [Example 2-403] , its pIC50 with HCV polymerase (Hepatitis C virus genotype 1b) was recorded as > 7.00

Form: item COC(=O)[C@H](Cc1ccc(OCC(=O)OC(C)(C)C)cc1)NC(=O)c1ccc2c(C3CCCCC3)c3n(c2c1)CCOc1cc(OC)ccc1-3 [Example 2-377] ; test system HCV polymerase (Hepatitis C virus genotype 1b); pIC50: > 7.00

====

# tested.on: HCV polymerase (Hepatitis C virus genotype 1b, UniProt P26663)
# Construct: a region encoding NS5B (J Virol 1991 March, 65(3), 1105-13, 544 amino acids after deletion of 47 amino acids on the C-terminal); 6xHis (C); made in house; host or cells: Escherichia coli
# Sequence (P26663 2420-2963): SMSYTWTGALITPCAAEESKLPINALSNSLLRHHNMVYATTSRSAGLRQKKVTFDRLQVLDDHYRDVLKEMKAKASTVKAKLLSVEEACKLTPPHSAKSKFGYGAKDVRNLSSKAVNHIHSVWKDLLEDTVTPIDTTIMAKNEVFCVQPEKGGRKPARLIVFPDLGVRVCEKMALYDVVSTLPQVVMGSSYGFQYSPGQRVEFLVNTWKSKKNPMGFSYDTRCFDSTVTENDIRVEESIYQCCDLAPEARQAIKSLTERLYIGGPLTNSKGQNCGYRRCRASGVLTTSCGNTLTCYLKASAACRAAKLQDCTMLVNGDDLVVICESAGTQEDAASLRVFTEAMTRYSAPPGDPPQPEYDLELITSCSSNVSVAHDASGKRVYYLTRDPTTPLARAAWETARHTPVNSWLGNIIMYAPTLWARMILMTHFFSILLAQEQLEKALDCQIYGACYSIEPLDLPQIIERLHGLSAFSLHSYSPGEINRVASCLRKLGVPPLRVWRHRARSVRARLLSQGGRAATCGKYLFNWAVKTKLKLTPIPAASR
# test.method.notes: biochemical
# Parameters: species or system HCV BK strain
pIC50: −log10 of the molar value. Structures can show the parent of a compound that is named as a salt.
Reported values of pIC50 for individual entries

Reference set, count: 5
COc1ccc2c(c1)OCCn1c-2c(C2CCCCC2)c2ccc(C(=O)NC(C)(C)c3nc4cc(N(C)C)ccc4[nH]3)cc21 :: > 7.00
O=C(O)c1ccc2c(C3CCCCC3)c3n(c2c1)CCN(CC(=O)N1CCOCC1)c1cc(Cl)ccc1-3 [Example 1-60, monohydrochloride] :: > 7.00
O=C(O)c1ccc2nc(NC(=O)c3ccc4c(C5CCCCC5)c5n(c4c3)CCOc3ccccc3-5)[nH]c2c1 :: 6.00 to 7.00
COC[C@H]1CCCN(CCN2CCn3c(c(C4CCCCC4)c4ccc(C(=O)O)cc43)-c3ccc(C)cc32)C1 [Example 1-417, dihydrochloride] :: > 7.00
COc1ccc2c(c1)OCCn1c-2c(C2CCCCC2)c2ccc(C(=O)NC(C)(C)c3nc4cc(C(=O)NCCO)ccc4[nH]3)cc21 :: > 7.00

GET /value?item= COc1ccc2c(c1)OCCn1c-2c(C2CCCCC2)c2ccc(C(=O)NC3(c4nc5ccc(C(C)(C)C(=O)O)cc5[nH]4)CCC3)cc21 &field=pIC50 returns > 7.00

====

# tested.on: HCV polymerase (Hepatitis C virus genotype 1b, UniProt P26663)
# Construct: a region encoding NS5B (J Virol 1991 March, 65(3), 1105-13, 544 amino acids after deletion of 47 amino acids on the C-terminal); 6xHis (C); made in house; host or cells: Escherichia coli
# test.method.notes: biochemical
# Parameters: species or system HCV BK strain
Structures can show the parent of a compound that is named as a salt.
Measured IC50 of individual entries

# annotated cases, reported IC50 shown
CN(c1ccc(N2CCOCC2)c(COc2ccc3c(c2)OCCn2c-3c(C3CCCCC3)c3ccc(C(=O)O)cc32)c1)S(C)(=O)=O [Example 2-19, monohydrochloride] :: < 0.1 µM
O=C(NCCOCCO)c1ccc2c(C3CCCCC3)c3n(c2c1)CCOc1ccccc1-3 :: 0.1 to 1 µM
CC(C)(NC(=O)c1ccc2c(C3CCCCC3)c3n(c2c1)CCOc1ccccc1-3)C(=O)Nc1ccc(CO)cc1 :: < 0.1 µM

So, CN(C)CCN(C)c1cccc2c1OCCn1c-2c(C2CCCCC2)c2ccc(C(=O)O)cc21 [Example 2-162, dihydrochloride] ? Its IC50 was < 0.1 µM

// IC50 lookup, compound = COC[C@@H]1CCCN(CCN2CCn3c(c(C4CCCCC4)c4ccc(C(=O)O)cc43)-c3cc(F)c(F)cc32)C1 [Example 1-530, dihydrochloride] , result: < 0.1 µM

The compound COCCn1c(C(C)(C)NC(=O)c2ccc3c(C4CCCCC4)c4n(c3c2)CCOc2cc(OC)ccc2-4)nc2ccccc21 showed IC50 equal to < 0.1 µM
